- measured.target: T1, mouse EGFL7 (mEGFL7-CB-His) (mouse, UniProt Q9QXT5 22-275)
- T1 sequence: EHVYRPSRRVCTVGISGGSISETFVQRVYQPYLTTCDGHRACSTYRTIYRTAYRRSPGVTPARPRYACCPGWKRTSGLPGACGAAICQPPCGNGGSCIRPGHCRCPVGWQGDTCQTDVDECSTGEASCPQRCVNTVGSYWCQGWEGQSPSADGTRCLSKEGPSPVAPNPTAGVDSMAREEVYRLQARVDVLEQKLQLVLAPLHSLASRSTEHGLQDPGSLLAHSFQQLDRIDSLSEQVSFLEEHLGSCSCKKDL
- assay.notes: SPR (Biacore), IgG over immobilized mEGFL7-CB at 37 C;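 also: IgG injected as twofold series from 0.5 to 1000 nM, 3 min association and 3.5 min dissociation, reference flow cell subtracted, kinetics fitted to 1:1 Langmuir model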
kon values by entry
endpoint: kon (M⁻¹ s⁻¹)

binder | test.value
18F7.v6D IgG (antibody, V domains shown, IgG; Variant of 18F7.v6) VH: EVQLVESGGGLVQPGGSLRLSCAASGYTFIDYYMNWVRQAPGKGLEWVGDINLDSGGTHYNQKFKGRFTISRDKSKNTAYLQMNSLRAEDTAVYYCAREGVYHDYDDYAMDYWGQGTLVTVSS VL: DIQMTQSPSSLSASVGDRVTITCRTSQSLVHISGITYLHWYQQKPGKAPKLLIYRVSNRFSGVPSRFSGSGSGTDFTLTISSLQPEDFATYYCGQSTHVPLTFGQGTKVEIK | 103000
18F7.v2 IgG (antibody, name in Kabat numbering, V domains shown, IgG; Kabat numbering; also called 18F7-K) VH: EVQLVESGGGLVQPGGSLRLSCAASGYTFIDYYMNWVRQAPGKGLEWVGDINLDNGGTHYNQKFKGRFTISRDKSKNTLYLQMNSLRAEDTAVYYCAREGVYHDYDDYAMDYWGQGTLVTVSS VL: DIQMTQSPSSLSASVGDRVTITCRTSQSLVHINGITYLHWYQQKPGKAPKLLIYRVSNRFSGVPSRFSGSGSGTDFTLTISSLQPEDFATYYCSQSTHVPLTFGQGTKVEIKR | 110000
